# TARGET: Chromobox protein homolog 1 (Homo sapiens) (UniProt P83916)
# Sequence (P83916 whole entry, looked up): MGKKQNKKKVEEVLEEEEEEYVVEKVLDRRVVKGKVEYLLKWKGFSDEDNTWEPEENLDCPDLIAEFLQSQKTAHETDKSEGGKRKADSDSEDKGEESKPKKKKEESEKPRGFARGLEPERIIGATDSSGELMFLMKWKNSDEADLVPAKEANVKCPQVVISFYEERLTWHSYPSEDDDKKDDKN
# METHOD_NOTES: HTS for Inhibitors of HP1-beta Chromodomain Interactions with Methylated Histone Tails; further: nearly all actives have a fitted effect of over 70% in size
# PROTOCOL_CONDITIONS: AlphaScreen HP1-beta / biotin-H3K9me3 peptide binding; series mostly up to 114 µM
Screen size: about 390,000 compounds; about 2,200 (0.56%) were called active. Roughly 3% stayed inconclusive and do not appear here. The call rests on the fitted dose curve; in most records, active means well fitted inhibition curve with a large enough effect; inconclusive means small, poorly fitted or top-dose-only effect; inactive means no such curve, though single readings can be large or run the other way. The entries come from a sample that favours actives as a whole.
// allowed return values: active, inactive

The following compounds have reported results that may help.
1) O=C(COc1ccccc1Cl)Nc1ccc2nc(SCC(=O)N3CCCC3)sc2c1 : inactive
2) C[C@H]1CN([C@@H](C)CO)C(=O)Cc2cc(NC(=O)Cc3ccccc3)ccc2O[C@H]1CN(C)S(=O)(=O)c1cccs1 : inactive
3) COc1ccc(CNC(=O)c2cc3c(-c4ccccc4F)nn(C)c3s2)c(OC)c1 : inactive
4) O=C(Cc1ccccc1)N1CCN(C2CCCCCC2)CC1 : active
5) Nc1nc(NC(=O)/C=C/c2ccc(F)cc2)nn1-c1ccccc1 : inactive

Hi, sorry to bother you, what did the test record for CN(C(=O)CSc1nc2ccc(NC(=O)COc3ccccc3)cc2s1)c1ccccc1 ?
inactive

Hi, sorry to bother you, what did the test record for c1ccc(CC2CCCCN2)cc1 (stereo not given) ?
inactive

Hi, sorry to bother you, what did the test record for O=C(Cc1ccc(Cl)cc1)NCCN1CCN(C(=O)Cc2ccc(Cl)cc2)CC1 ?
inactive

Hi, sorry to bother you, what did the test record for O=C(Cc1ccccc1[N+](=O)[O-])N1CCN(Cc2ccc3c(c2)OCO3)CC1 ?
inactive

Hi, sorry to bother you, what did the test record for Cc1cc(C)c2c(c1)NP(=S)(c1ccccc1)N2 (stereo not given) ?
active
